Data origin, for the record: the Biogen ADME set (Fang et al. 2023)

quantityMeasured: fraction unbound, rat plasma

CNC(=O)C1(Cc2ccc(-c3cccnc3)cc2)CCN(Cc2ccccc2Cl)C1 (stereo not given) : 0.0188
COc1cc2c(cc1OC)CC(=O)N(CCCN(C)C[C@H]1Cc3cc(OC)c(OC)cc31)CC2 : 0.412

1. CC(=O)Nc1ccc(C(=O)N2CCCCC2c2nc(N)ncc2-c2ccc(Cl)cc2)cc1 (stereo not given)
2. OCC1CCCCN1Cc1ccc(Cl)c(Cl)c1 (stereo not given)
3. COc1ccc(CNC(=O)c2sc3nc(C)cc(C)c3c2N)cc1
# sort list by recorded fraction unbound, rat plasma, greatest to least // rank by listing labels in the order requested
2, 1, 3
(2: 0.305, 1: 0.0355, 3: 0.00657)

###

quantityMeasured: intrinsic clearance, rat liver microsomes (mL/min/kg)

Cc1cc(Nc2ccc(F)cn2)cc(C2CCN(C(=O)CCc3cccc(Cl)c3)C2)n1 (centres undefined) : 2270
O=C1NC2(CCCCC2)C(=O)N1Cc1csc(-c2ccccc2)n1 : 862
Cc1cc(C)c2c(N)c(C(=O)NCc3ccc(Cl)cc3)sc2n1 : 1540
Cn1ccc(NC(=O)c2cc(-c3ccncc3)nc3ccccc23)n1 : 65.7
COc1ccc(C(=O)C2CCN(CC(=O)N(Cc3nc4c(c(=O)[nH]3)COCC4)CC3CC3)CC2)cc1 : 45.5
O=c1c2sccc2nc2n1CCN(Cc1cc(F)ccc1F)CC2 : 2180

P. Cc1ccccc1CSc1ccc(-c2ccccn2)nn1
Q. Cc1cccc(Oc2ncccc2N)c1C
R. COc1cccc(CNc2ncc(-c3ccccc3)n2C)c1
S. CC(=O)Nc1ccccc1CN1CCC(c2nnc3ccccn23)CC1
T. COCCc1n[nH]c(-c2ccc(N3CCN(C)CC3)cc2)n1
# sort list by recorded intrinsic clearance, rat liver microsomes, greatest to least // rank by listing labels in the order requested
R, P, Q, S, T

1. CN(CC(=O)NC1(C#N)CCCCC1)c1cccc(C#N)c1
2. Cc1cnn(C2CN(CC3(O)CCCCC3)C2)c1
3. O=C1CN(c2ccc(Nc3nccc(C(F)(F)F)n3)cn2)CCN1
4. O=C(O)c1ccccc1-c1ccc(CN2CCCCC2)cc1
# sort list by recorded intrinsic clearance, rat liver microsomes, greatest to least // rank by listing labels in the order requested
2, 1, 4, 3

A. N#Cc1cc(N2CC(CO)C2)nc2ccc(Cl)cc12
B. c1ccc(N2CCOCC2)c(CNc2cc(N3CCCC3)ncn2)c1
C. CC(C)(C)c1csc(Cn2ccnc2-c2ccccn2)n1
# sort list by recorded intrinsic clearance, rat liver microsomes, greatest to least // rank by listing labels in the order requested
C, B, A

###

quantityMeasured: intrinsic clearance, rat liver microsomes (mL/min/kg)

Illustrative cases are given below, each with its answer.
COc1cc(NC(=O)c2ccc(F)cc2C)ncn1 : 49.1
CCC(=O)NCCNC(=O)c1cc(-c2ccccc2)nc2ccccc12 : 80.3
CSCC[C@@H](CO)n1ccnc1-c1oc2ccccc2c1C : 2000
COc1ccc(Br)c(-c2nnc(N)o2)c1 : 59.2
COc1ccc(-c2c(C)n[nH]c2C)cn1 : 52.2
COc1ccc(CNC(=O)c2sc3nc(C)cc(C)c3c2N)cc1 : 558
Cc1nccc(-c2ccc(-c3noc(CN4CCOCC4)n3)cc2)n1 : 106
Cn1c(=O)c(C(=O)CSc2nc3ccccc3n2C)c(N)n(Cc2ccccc2)c1=O : 2400
Cc1ccnc(NCc2cccnc2)n1 : 16.5
Cc1nc(NC(c2nccn2C)C2CC2)c2sccc2n1 (stereo not given) : 319

A. CC(C)(C)C(=O)N1CCC(CN(CC(N)=O)C2CCCC2)CC1
B. COc1cccc([C@@H](C)n2cnc3cn(C)nc3c2=O)c1
Could you tell me which of these two has the smaller intrinsic clearance, rat liver microsomes figure? First: A Second: B Reply with the label of the item you choose.
B

a. CN(Cc1cnccn1)Cc1nc(N)c2ccccc2n1
b. CN(C/C=C/C(=O)N1CCC[C@@H](n2nc(-c3ccc(Oc4ccccc4)cc3)c3c(N)ncnc32)C1)CCCCNC(=O)CCCC(=O)NCCCOCCOCCOCCCNC(=O)CCCC[C@@H]1SC[C@@H]2NC(=O)N[C@@H]21
c. CN(C)C(=O)C1(Cc2ccccc2-c2ccccc2)CCN(C(=O)C2CCCO2)CC1 (stereo not given)
d. O=C(c1ccc(F)cc1)N1Cc2nc[nH]c2C[C@H]1c1nc(-c2ccc(Cl)cc2)no1
e. O=C(NCc1ncc(-c2ccccc2)o1)C1CCCCC1
# sort list by recorded intrinsic clearance, rat liver microsomes, greatest to least // rank by listing labels in the order requested
c, e, a, d, b
(c: 2390 mL/min/kg, e: 668 mL/min/kg, a: 458 mL/min/kg, d: 133 mL/min/kg, b: 87.3 mL/min/kg)

P. COc1ccc2nc(CN3CCC(O)(c4ccc(C)cc4)CC3)ccc2c1
Q. Cc1ccc(C)c(NC(=O)CN2CCCN(c3ccc(C(F)(F)F)cn3)CC2)c1
Rank P against Q by their intrinsic clearance, rat liver microsomes values and give the higher one. Reply with the label of the item you choose.
Q

A. c1ccn2cc(CSc3ccc(-n4cccn4)nn3)nc2c1
B. COCCc1nc(-c2cnc(C3CC3)nc2)n(Cc2ccc(F)cc2)n1
C. CC1(C)Oc2ccc(Cl)cc2[C@@H]2O[C@@H]3CCNC[C@@H]3C[C@H]21
D. O=C(NC1CCCCCC1)c1ccc(CSc2nc3ccccc3[nH]2)cc1
E. O=C(NCCc1nnc2n1CCC2)c1ccc2c(c1)CCC2
Ascending by intrinsic clearance, rat liver microsomes, please. // rank by listing labels in the order requested
E, C, A, B, D

I. COc1cc2c(cc1OC)CN(CN1C(=O)c3cccc4cccc1c34)CC2
II. COc1ccc(CN[C@@H]2CCC[C@H]2Cc2cc(C)no2)cc1OC
III. CNCCN1CCC(OCc2ccccc2)CC1
IV. CC(C)C(=O)Nc1ccc2cnn(C(C)C)c2c1
# sort list by recorded intrinsic clearance, rat liver microsomes, greatest to least // rank by listing labels in the order requested
II, I, III, IV
(II: 1120 mL/min/kg, I: 504 mL/min/kg, III: 143 mL/min/kg, IV: 55.8 mL/min/kg)

a. Cc1c(C(=O)N2CCC(C(=O)Nc3ccc4c(c3)OCO4)CC2)oc2c(F)cccc12
b. O=c1c2oc3ccccc3c2ncn1Cc1ccc(Cl)cc1
Rank a against b by their intrinsic clearance, rat liver microsomes values and give the higher one. Reply with the label of the item you choose.
b
(b: 906 mL/min/kg, a: 545 mL/min/kg)

I. Cc1cccc(N(C)C(=O)COC2CCCC2)n1
II. COCC(=O)Nc1cccc(-n2cccc2)c1
III. Cc1nccc(-c2cccc(NCc3cc(C)on3)c2)n1
IV. Cc1ccc(NC(=O)CN(C)C2CCCCC2)cc1S(=O)(=O)N(C)C
Ascending by intrinsic clearance, rat liver microsomes, please. // rank by listing labels in the order requested
II, I, III, IV
(II: 129 mL/min/kg, I: 200 mL/min/kg, III: 350 mL/min/kg, IV: 3870 mL/min/kg)

I. CC(=O)NC1(c2ccc(F)cc2)CCN(Cc2ccc(OC3CCCC3)cc2)CC1
II. CC(C)CCCNC(=O)c1[nH]ncc1Br
Could you tell me which of these two has the smaller intrinsic clearance, rat liver microsomes figure? First: I Second: II Reply with the label of the item you choose.
I

###

quantityMeasured: intrinsic clearance, human liver microsomes (mL/min/kg)

P. Cc1cc(NC(=O)c2cccs2)no1
Q. O=C1NC2(CCCCC2)C(=O)N1Cc1csc(-c2ccccc2)n1
Rank P against Q by their intrinsic clearance, human liver microsomes values and give the higher one. Reply with the label of the item you choose.
P
(P: 39.6 mL/min/kg, Q: 23.7 mL/min/kg)

###

quantityMeasured: MDR1-MDCK efflux ratio

NCc1cccnc1OCc1ccccc1 : 0.434

I. Cc1cc(C)n(-c2cc(Nc3ccccc3C)ncn2)n1
II. CC(C)CCN1CCC(CNC(=O)C2CC=CC2)CC1
III. Cc1ccc(NC(=O)c2cccc(N(C)C)c2)cc1NC(=O)c1ccc(O)cc1
IV. O=C(C(c1ccccc1)c1ccccc1)N1CCOCC(Cc2ccc3cnccc3c2)C1 (configuration not stated)
# sort list by recorded MDR1-MDCK efflux ratio, greatest to least // rank by listing labels in the order requested
III, II, IV, I

a. CCN(Cc1cnn(C(C)C)c1)C(=O)NCCC(C)(C)OC
b. Cc1cn(-c2cc(NC(=O)c3ccc(C)c(Nc4nccc(-c5cccnc5)n4)c3)cc(C(F)(F)F)c2)cn1
c. CC1Cc2ccccc2N1C(=O)CN1CCC(n2c(=O)[nH]c3ccccc32)CC1 (configuration not stated)
Ascending by MDR1-MDCK efflux ratio, please. // rank by listing labels in the order requested
b, a, c
(b: 8.9, a: 17.2, c: 29)

I. CCN(CC)CCCNc1ncc(-c2cc(C)no2)c(-c2ccco2)n1
II. O=C(CCN1C(=O)CCC1=O)Nc1cccc2ncccc12
III. CC(C)NC(=O)C1(Cc2ccccc2-c2ccncc2)CCOCC1
IV. Cc1nc(O)c(Cl)c(N(C)CC2CCN(C)CC2)n1
Ascending by MDR1-MDCK efflux ratio, please. // rank by listing labels in the order requested
IV, II, I, III
